# TEST_NAME: Hygroscopicity / moisture uptake observed on isolation of the salts
# Type: physicochemical
# COND: observation on isolated solid / during filtration
Structures can show the parent of a compound that is named as a salt.
MEASURED_ENDPOINT: Hygroscopicity

Cc1[nH]c2ccccc2c1CCNCc1ccc(/C=C/C(=O)NO)cc1 [potassium salt]: highly hygroscopic
Cc1[nH]c2ccccc2c1CCNCc1ccc(/C=C/C(=O)NO)cc1 [sodium salt]: highly hygroscopic

###

# TEST_NAME: Thermogravimetric analysis (TGA) of the salts: loss on drying, desolvation and decomposition temperature
# Assay type: physicochemical
# COND: approximated by onset of first derivative of thermogravimetric curve vs. temperature, salt sample as obtained from the solvent/temperature
Structures can show the parent of a compound that is named as a salt.
MEASURED_ENDPOINT: Tdecomposition (°C)
Give just the number in °C; leave the unit off.

Cc1[nH]c2ccccc2c1CCNCc1ccc(/C=C/C(=O)NO)cc1 [maleate salt polymorph from 2-propanol (yellow powder)]: 118.9
Cc1[nH]c2ccccc2c1CCNCc1ccc(/C=C/C(=O)NO)cc1 [maleate salt form HA]: 150
Cc1[nH]c2ccccc2c1CCNCc1ccc(/C=C/C(=O)NO)cc1 [acetate salt form SA]: 147.9

Please fill in: Tdecomposition reported for Cc1[nH]c2ccccc2c1CCNCc1ccc(/C=C/C(=O)NO)cc1 [hemi-malate salt form SA] = 95

According to the records, this molecule Cc1[nH]c2ccccc2c1CCNCc1ccc(/C=C/C(=O)NO)cc1 [sulfate salt form SA] displays Tdecomposition of 162

Entry Cc1[nH]c2ccccc2c1CCNCc1ccc(/C=C/C(=O)NO)cc1 [hemi-succinate salt form SA] ; Tdecomposition = 155.8

Reported Tdecomposition of Cc1[nH]c2ccccc2c1CCNCc1ccc(/C=C/C(=O)NO)cc1 [benzoate salt form A] : 160.2

Record Cc1[nH]c2ccccc2c1CCNCc1ccc(/C=C/C(=O)NO)cc1 [mesylate salt form A] , field Tdecomposition: 170.9

response.value for Cc1[nH]c2ccccc2c1CCNCc1ccc(/C=C/C(=O)NO)cc1 [phosphate salt form HA] (field: Tdecomposition) = 179.6

Record Cc1[nH]c2ccccc2c1CCNCc1ccc(/C=C/C(=O)NO)cc1 [gentisate salt form A] . Reported Tdecomposition: 235.5

Short answer for Cc1[nH]c2ccccc2c1CCNCc1ccc(/C=C/C(=O)NO)cc1 [hydrochloride salt form A] : Tdecomposition was 232.3

Record summary for Cc1[nH]c2ccccc2c1CCNCc1ccc(/C=C/C(=O)NO)cc1 [mesylate salt forms A + B] : reported Tdecomposition = 172.8

What the record says about Cc1[nH]c2ccccc2c1CCNCc1ccc(/C=C/C(=O)NO)cc1 [hemi-fumarate salt form HA] : Tdecomposition is 159.8

For reference, reported Tdecomposition for Cc1[nH]c2ccccc2c1CCNCc1ccc(/C=C/C(=O)NO)cc1 [hemi-fumarate salt form B] stands at 213.2

###

# TEST_NAME: Thermogravimetric analysis (TGA) of the salts: loss on drying, desolvation and decomposition temperature
# Assay type: physicochemical
# COND: approximated by onset of first derivative of thermogravimetric curve vs. temperature, salt sample as obtained from the solvent/temperature
Counter-ions that a name gives are not always drawn.
MEASURED_ENDPOINT: Tdecomposition

Cc1[nH]c2ccccc2c1CCNCc1ccc(/C=C/C(=O)NO)cc1 [sulfate salt form A]: ~160 °C

Input Cc1[nH]c2ccccc2c1CCNCc1ccc(/C=C/C(=O)NO)cc1 [hemi-tartarate salt form B] . Output Tdecomposition: >160 °C

The reported numbers originate from patent US7989639B2.
